Entries and their In vitro activity (relative activity to SEQ ID NO: 1, %)
Molecular target: glucagon receptors (Homo sapiens, UniProt P47871)
Sequence (P47871 26-477): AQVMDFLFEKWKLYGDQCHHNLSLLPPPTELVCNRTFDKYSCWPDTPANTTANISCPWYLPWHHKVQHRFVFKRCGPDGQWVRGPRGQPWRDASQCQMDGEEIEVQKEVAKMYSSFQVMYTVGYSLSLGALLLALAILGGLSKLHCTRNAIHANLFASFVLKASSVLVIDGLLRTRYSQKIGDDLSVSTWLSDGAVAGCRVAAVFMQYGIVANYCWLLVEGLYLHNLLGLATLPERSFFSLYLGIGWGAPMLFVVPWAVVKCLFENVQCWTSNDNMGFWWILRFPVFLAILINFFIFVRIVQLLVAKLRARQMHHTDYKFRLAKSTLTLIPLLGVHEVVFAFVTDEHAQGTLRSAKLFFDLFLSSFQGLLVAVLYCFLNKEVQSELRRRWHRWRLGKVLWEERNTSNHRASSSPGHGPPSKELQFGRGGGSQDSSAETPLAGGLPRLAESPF
Assay: In vitro activity of glucagon analogs relative to native glucagon
Type: cell-based
Settings: relative to native glucagon (SEQ ID NO: 1)
Bridges are numbered along the chain shown (N, C = ends). Where no end group is shown, it is not given here. [ ]: non-standard residue; d: D form. Aib = CC(C)(N)C(=O)O
Express the result in % but write the number alone.

>  <Construct sequence>
YXQGTFVSDCSKYLDERRAKDFVQWLMNT (Y[Aib]QGTFVSDCSKYLDERRAKDFVQWLMNT; lactam 16-20) [SEQ ID NO: 39]

>  <Quantity unit>
%

>  <Measured number>
3.7

$$$$
>  <Construct sequence>
HSQGTFTSDYSKYLDCERAQDFVQWLMNT (glucagon derivative) [SEQ ID NO: 3]

>  <Quantity unit>
%

>  <Measured number>
6.1

$$$$
>  <Construct sequence>
YXQGTFCSDYSKYLDSRRAQDFVQWLMNT (Y[Aib]QGTFCSDYSKYLDSRRAQDFVQWLMNT) [SEQ ID NO: 42]

>  <Quantity unit>
%

>  <Measured number>
37.9

$$$$

Task: Identify the measured In vitro activity (relative activity to SEQ ID NO: 1, %) of YXQGTFTSDYSKYLDCKRAKEFVQWLMNT [SEQ ID NO: 14] (Y[Aib]QGTFTSDYSKYLDCKRAKEFVQWLMNT; not fully specified (bridges); also: lactam ring between underlined residues, places not shown) for glucagon receptors (Homo sapiens, UniProt P47871).
Result: 18.1

====

Entries and their In vitro activity (relative activity to SEQ ID NO: 1, %)
Target: glucagon receptors (Homo sapiens, UniProt P47871)
Assay: In vitro activity of glucagon analogs relative to native glucagon
Type: cell-based
Conditions: relative to native glucagon (SEQ ID NO: 1)
Bridges are numbered along the chain shown (N, C = ends). Where no end group is shown, it is not given here. [ ]: non-standard residue; d: D form. Aib = CC(C)(N)C(=O)O
Express the result in % but write the number alone.

Worked examples, 8 substances total:
>  <Substance>
YXQGTFTSDYSKYLDCRRAQVFVQWLMRT (Y[Aib]QGTFTSDYSKYLDCRRAQVFVQWLMRT) [SEQ ID NO: 16]

>  <Measured number>
4.2

$$$$
>  <Substance>
YXQGTFTSDYSKYLDSRRAQDFVQWLMNTC (glucagon derivative; (2) Xaa is aminoisobutyric acid (Aib)) [SEQ ID NO: 44]

>  <Measured number>
75.4

$$$$
>  <Substance>
WXQGTFTSDYSKCLDERRAKDFVQWLMNT (W[Aib]QGTFTSDYSKCLDERRAKDFVQWLMNT; lactam 16-20) [SEQ ID NO: 30]

>  <Measured number>
0.3

$$$$
>  <Substance>
-SQGTFTSDYSKYLDECRAKEFVQWLMNT (lactam 15-19; also: name begins with '-' (N-terminal residue not shown)) [SEQ ID NO: 32]

>  <Measured number>
0.7

$$$$
>  <Substance>
YXQGTFVSDYSKYLDECRAKDFVQWLMNT (Y[Aib]QGTFVSDYSKYLDECRAKDFVQWLMNT; lactam 16-20) [SEQ ID NO: 27]

>  <Measured number>
93.6

$$$$
>  <Substance>
YXQGTFTSDYSCYLDSRRAQDFVQWLMNT (Y[Aib]QGTFTSDYSCYLDSRRAQDFVQWLMNT) [SEQ ID NO: 13]

>  <Measured number>
5.2

$$$$
>  <Substance>
YXQGTFTSDYSKYLCEKRAQDFVVWLMNT (Y[Aib]QGTFTSDYSKYLCEKRAQDFVVWLMNT) [SEQ ID NO: 15]

>  <Measured number>
1.1

$$$$
>  <Substance>
YXQGTFVSDYSKYLDERRAKDFVQWLMNTC (Y[Aib]QGTFVSDYSKYLDERRAKDFVQWLMNTC; lactam 16-20) [SEQ ID NO: 40]

>  <Measured number>
40.8

$$$$

Task: Identify the measured In vitro activity (relative activity to SEQ ID NO: 1, %) of YXQGTFTSDYSKCLDEKRAKEFVQWLMNT (Y[Aib]QGTFTSDYSKCLDEKRAKEFVQWLMNT; lactam 16-20) [SEQ ID NO: 24] for glucagon receptors (Homo sapiens, UniProt P47871).
Result: 58.0

Task: Identify the measured In vitro activity (relative activity to SEQ ID NO: 1, %) of YXQGTFTSDCSKYLDERRAKEFVQWLMNT (Y[Aib]QGTFTSDCSKYLDERRAKEFVQWLMNT; lactam 16-20) [SEQ ID NO: 36] for glucagon receptors (Homo sapiens, UniProt P47871).
Result: 9.9

Task: Identify the measured In vitro activity (relative activity to SEQ ID NO: 1, %) of YXQGTFTSDYSKYLDEKRAKEFVQWLMNTC (Y[Aib]QGTFTSDYSKYLDEKRAKEFVQWLMNTC; lactam 16-20) [SEQ ID NO: 12] for glucagon receptors (Homo sapiens, UniProt P47871).
Result: 56.3

Task: Identify the measured In vitro activity (relative activity to SEQ ID NO: 1, %) of YXQGTFTSDYSKYCDEKRAKEFVQWLMNT (Y[Aib]QGTFTSDYSKYCDEKRAKEFVQWLMNT; lactam 16-20) [SEQ ID NO: 23] for glucagon receptors (Homo sapiens, UniProt P47871).
Result: 76.8

Task: Identify the measured In vitro activity (relative activity to SEQ ID NO: 1, %) of YXQGTFTSDYSKCLDERRAKDFVQWLMNT (Y[Aib]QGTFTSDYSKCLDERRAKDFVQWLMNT; lactam 16-20) [SEQ ID NO: 29] for glucagon receptors (Homo sapiens, UniProt P47871).
Result: 61.3

Task: Identify the measured In vitro activity (relative activity to SEQ ID NO: 1, %) of YXQGTFTSDYSKYLDSRRAQDFVQWLMNT (X non-natural residue; glucagon derivative; (2) Xaa is aminoisobutyric acid (Aib)) [SEQ ID NO: 33] for glucagon receptors (Homo sapiens, UniProt P47871).
Result: 108.2

Task: Identify the measured In vitro activity (relative activity to SEQ ID NO: 1, %) of YXQGTFCSDYSKYLDERRAKEFVQWLMNT (Y[Aib]QGTFCSDYSKYLDERRAKEFVQWLMNT; lactam 16-20) [SEQ ID NO: 38] for glucagon receptors (Homo sapiens, UniProt P47871).
Result: 167.3

Task: Identify the measured In vitro activity (relative activity to SEQ ID NO: 1, %) of YXQGTFTSDYSKYLDCVRAQDFVQWLMRT (Y[Aib]QGTFTSDYSKYLDCVRAQDFVQWLMRT) [SEQ ID NO: 17] for glucagon receptors (Homo sapiens, UniProt P47871).
Result: 23.2

Task: Identify the measured In vitro activity (relative activity to SEQ ID NO: 1, %) of YXQGTFTSDYSKYLDEKCAKEFVQWLMNT [SEQ ID NO: 11] (Y[Aib]QGTFTSDYSKYLDEKCAKEFVQWLMNT; not fully specified (bridges); also: lactam ring between underlined residues, places not shown) for glucagon receptors (Homo sapiens, UniProt P47871).
Result: 4.6

Task: Identify the measured In vitro activity (relative activity to SEQ ID NO: 1, %) of YXQGTFTSDYSKYLDERRAKEFVQWLMNTC (Y[Aib]QGTFTSDYSKYLDERRAKEFVQWLMNTC; lactam 16-20) [SEQ ID NO: 37] for glucagon receptors (Homo sapiens, UniProt P47871).
Result: 225.5

Task: Identify the measured In vitro activity (relative activity to SEQ ID NO: 1, %) of YXQGTFTSDCSKYLDSRRAQDFVQWLMNT (Y[Aib]QGTFTSDCSKYLDSRRAQDFVQWLMNT) [SEQ ID NO: 43] for glucagon receptors (Homo sapiens, UniProt P47871).
Result: 1.6

Task: Identify the measured In vitro activity (relative activity to SEQ ID NO: 1, %) of HSQGTFTSDYSKYLDSCEAQDFVQWLMNT (glucagon derivative) [SEQ ID NO: 5] for glucagon receptors (Homo sapiens, UniProt P47871).
Result: 0.3
